measurement-target: TLR4; Recombinant human TLR4 protein (Active) (Homo sapiens)
Construct: commercial recombinant protein (Abcam, 'Active'); immobilised on CM5 chip by amine coupling
Sequence (O00206 24-631 limits assumed): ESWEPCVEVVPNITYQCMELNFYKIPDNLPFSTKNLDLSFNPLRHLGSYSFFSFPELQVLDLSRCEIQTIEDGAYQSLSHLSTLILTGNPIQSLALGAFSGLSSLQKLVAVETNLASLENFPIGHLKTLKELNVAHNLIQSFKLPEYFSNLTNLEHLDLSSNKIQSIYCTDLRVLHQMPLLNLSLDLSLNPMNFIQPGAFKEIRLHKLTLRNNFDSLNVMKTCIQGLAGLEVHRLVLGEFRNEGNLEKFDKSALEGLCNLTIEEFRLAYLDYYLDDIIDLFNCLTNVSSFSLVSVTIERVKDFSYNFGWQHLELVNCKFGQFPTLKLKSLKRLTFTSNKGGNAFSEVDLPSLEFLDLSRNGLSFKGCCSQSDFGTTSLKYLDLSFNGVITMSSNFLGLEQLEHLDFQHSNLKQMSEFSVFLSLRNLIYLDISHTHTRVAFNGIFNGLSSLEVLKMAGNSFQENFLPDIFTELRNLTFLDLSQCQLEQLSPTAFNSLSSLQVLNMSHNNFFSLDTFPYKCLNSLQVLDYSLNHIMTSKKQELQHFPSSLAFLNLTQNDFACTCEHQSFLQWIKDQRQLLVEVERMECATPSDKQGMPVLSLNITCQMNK
method-notes: surface plasmon resonance (Biacore T200, TLR4 immobilised on CM5 chip)

line-notation: O=c1oc2c(O)c(O)cc3c(=O)oc4c(O)c(O)cc1c4c23
display-unit: µM
Kd: 19.2

Origin of values: paper PMC10981743
